// note: pIC50 values for Stromelysin-1 (Homo sapiens) were reported in different studies
pIC50: −log10 of the molar value.
# binarize pIC50: threshold 6 inclusive, high side true, low side false

[[record]]
molecule = "Cc1cc(COc2ccc(S(=O)(=O)CC(CC3CCC(=NO)CC3)N(O)C=O)cc2)cc(C)n1 (centres unmarked)"
group = "false"


Can Cc1cccc(COc2ccc(C(=O)[C@H]3CC[C@@H](Cn4nnc5ccc(C(F)(F)F)cc5c4=O)[C@@H]3C(=O)O)cc2)c1 (racemic) be said to have pIC50 at or above 6?
true

Does `N#Cc1ccc(Oc2ccc(S(=O)(=O)N3CCN(C(=O)N4CCOCC4)C[C@@H]3C(=O)NO)cc2F)cc1` have a reported pIC50 of at least 6?
true

Check if pIC50 >= 6 (inclusive). Item: COc1cc(C)cc(COc2ccc(S(=O)(=O)CC(C=C3CCC(=O)CC3)N(O)C=O)cc2)c1 (centres unmarked)
false

Entry Cc1cccn(CC2(c3ccc(OCc4ccccc4)cc3)NC(=O)NC2=O)c1=O (centres unmarked) : is its pIC50 no less than 6?
false

Does the molecule COCc1cc(COc2ccc(S(=O)(=O)CC(C=C3CCC(=NO)CC3)N(O)C=O)cc2)cc(C)n1 (centres unmarked) have recorded pIC50 that is 6 or more?
false

Decide: is the reported value of pIC50 for `CCCCCCCCCOc1ccc(O)c(O)c1` equal to or greater than 6?
false

Item COc1cc(C)cc(COc2ccc(S(=O)(=O)CC(CC3CCC4(CC3)OCCO4)N(O)C=O)cc2)c1 (centres unmarked) with pIC50 of 6 or above?
false

Threshold query (pIC50 >= 6) on COCC(=O)N1CCN(CC(CS(=O)(=O)c2ccc(OCc3cc(C)nc4ccccc34)cc2)N(O)C=O)CC1 (centres unmarked)
true

Evaluate `CCCCc1ccc(C(=O)Nc2ccc(S(=O)(=O)N(CCN3CCOCC3)[C@@H](C(=O)NO)C(C)C)cc2)cc1` : pIC50 at minimum 6?
true
